assay: blocking HSF1-driven luciferase expression – cell-based, NIH3T3, luminescence, primary screen (AID 2098); settings: NIH3T3-HGL HSE-luciferase, MG132-induced, luminescence 8 h; active compounds read low; screened at 7.5 µM (by protocol);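 also: luciferase reports HSF-1 transcriptional activity via heat shock element; 0% = median of DMSO wells and -100% = zero luminescence signal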
In all, about 300,000 compounds went through this assay and about 2,300 (0.77%) were called active. The sample as a whole holds a higher share of actives than the screen did.
This listing pairs compounds with measured activity change, negative = inhibition.

Some solved entries appear below for comparison.
CC(=O)N[C@H]1[C@H]([C@H](O)[C@H](O)CO)OC(C(=O)O)=C[C@@H]1O | -3.57% (inactive)
CC(=O)Nc1cccc(C(=O)OCC(=O)c2ccc3c(c2)OCO3)c1 | -8.13% (inactive)
COc1cc(OC)cc(-c2nnc(SCC(=O)Nc3ccc(C(=O)O)cc3)s2)c1 | -5.1% (inactive)
Cc1cc(C(=O)CCl)c(C)n1CC1COc2ccccc2O1 (stereo unspecified) | 19.5% (inactive)
CCN(CCCNC(=O)CCn1c(=O)[nH]c2ccsc2c1=O)c1ccccc1 | -61.9% (active)
COc1cc(/C=N/NC(=O)c2cc(C)n(-c3ccc(F)cc3)c2C)cc(OC)c1O | -15.3% (inactive)

(Q) Using the record for COc1ccc(C(=O)NCC(c2ccco2)N2CCc3ccccc32)cc1OC (stereo unspecified) , report its activity change, negative = inhibition.
(A) 2.71% (inactive)

(Q) Using the record for Cc1ccc(C(=O)C(C)OC(=O)Cc2n[nH]c(=O)c3ccccc23)cc1C (stereo unspecified) , report its activity change, negative = inhibition.
(A) -5.5% (inactive)

(Q) Using the record for Cc1csc(SCC(=O)Nc2sccc2C#N)n1 , report its activity change, negative = inhibition.
(A) 9.14% (inactive)

(Q) Using the record for Cc1cc(C(=O)COC(=O)C2CC2)c(C)n1-c1ccc(F)cc1 , report its activity change, negative = inhibition.
(A) -71.9% (active)

(Q) Using the record for CN(Cc1c(F)cccc1Cl)C(=O)CNC(=O)c1ccc2c(c1)OCO2 , report its activity change, negative = inhibition.
(A) 2.65% (inactive)

----------
test: blocking HSF1-driven luciferase expression – cell-based, NIH3T3, luminescence, primary screen (AID 2098); conditions: NIH3T3-HGL HSE-luciferase, MG132-induced, luminescence 8 h; screened at 7.5 µM (by protocol);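 also: luciferase reports HSF-1 transcriptional activity via heat shock element; 0% = median of DMSO wells and -100% = zero luminescence signal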
Out of some 300,000 compounds screened, about 2,300 (0.77%) were called active.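 How the source made its calls: active means more than half of replicate wells show activity change below -50%, luminescence cut by over half; inconclusive means some wells, but at most half, below -50%; inactive means no replicate well below -50%.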 Many of the other results were omitted from the sample, so actives are more common in it than they were.
Hi there, use one of these labels in your reply, thanks! active, inactive

Study these solved cases before continuing.
O=C(COC(=O)Cc1ccccc1F)NNC(=O)c1ccc(Cl)cc1 | inactive
COc1ccc(/C=C2/S/C(=N/N=C3\CC4CCC3(C)C4(C)C)NC2=O)cc1 (stereo not given) | active
O=C(NCCCn1ccnc1)C(=O)NCC1OCCN1S(=O)(=O)c1cc(F)ccc1F (stereo not given) | active
COc1ccc(C(=O)N(Cc2ccccc2)c2ccc(C)cc2)cc1S(=O)(=O)N1CCOCC1 | inactive
CCOc1ccc(OCc2ccc(C(=O)N(C)c3ccccc3)o2)cc1 | inactive
COc1cccc(NC(=O)CC2C(=O)NCCN2C(=S)Nc2ccc(F)cc2)c1 (stereo not given) | inactive

(Q) Record request — test call for CCOc1ccc(N=C2NC(=O)S/C2=C\c2ccc(O)cc2)cc1
(A) inactive

(Q) Record request — test call for Cc1ccccc1N1CC(C(=O)Nc2ccc(S(=O)(=O)N3CCCC3)cc2)CC1=O (stereo not given)
(A) inactive

(Q) Record request — test call for CCOc1ccc(OCc2cccc(C(=O)N(CC)CC)c2)cc1
(A) active

(Q) Record request — test call for COc1ccc(/C=C2\SC(=N)N(c3ccc(F)cc3)C2=O)cc1
(A) inactive

These measurements were taken from PubChem BioAssay AID2098.
